- Test system: OVCAR-5
- method_notes: NCI tumour cell line growth inhibition, 48 h
Active and inactive are the calls of the source. Rule as the data show it: active = GI50 up to about 1.1 µM and inactive = higher.
property_measured: GI50

                                   compound  property_measured                  val
0  CCc1nnc(S)n1/N=C/c1ccc(-c2ccc([N+](=O)[O-])cc2)o1               GI50  > 100 µM (inactive)
1  O=C(NCCc1n[nH]c2c1C(=O)C=C(Nc1ccccc1)C2=O)OCc1ccccc1               GI50  > 100 µM (inactive)
2  COC(=O)[C@@H]1c2c(oc3cc(CO)cc(O)c3c2=O)C=C[C@H]1O               GI50   9.51 µM (inactive)
3  O=C1CSC(c2cc3cc(Br)ccc3nc2Cl)N1c1ccc(Cl)cc1 (stereo not given)               GI50   94.8 µM (inactive)
4  COC(=O)c1ccc(C)cc1C1CN=NC12Cc1cccc(C)c1C2=O (stereo not given)               GI50  > 100 µM (inactive)

###

// GI50 lookup, one value per entry
- Tested on: LOX IMVI
- method_notes: NCI tumour cell line growth inhibition, 48 h
Calls of active or inactive are those of the source. No stated cut-off is given here; in the data, active = GI50 up to about 1.1 µM and inactive = higher.
property_measured: GI50

                                    compound  property_measured                   val
 0  COC(=O)/N=C(\NC(=O)OC)Nc1ccc(Oc2ccccc2)cc1NC=O               GI50    1.97 µM (inactive)
 1  COC(=O)c1ccc(C)cc1C1CN=NC12Cc1cccc(C)c1C2=O (stereo not drawn)               GI50    28.6 µM (inactive)
 2  CSc1nc(SC)c2c(C)cn(C3OC(C)C(O)C(O)C3O)c2n1 (stereo not drawn)               GI50    31.8 µM (inactive)
 3     CCOC(=O)/C=C/n1c2ccccc2c(=O)c2ccccc21               GI50   > 100 µM (inactive)
 4  Sc1ncnc2c1ncn2C1CCCO1 (stereo not drawn)               GI50    37.6 µM (inactive)
 5  COc1ccc(/C=C2\N/C(=N\N=C/C(O)C(O)C(O)C(O)CO)NC2=O)cc1 (stereo not drawn)               GI50    65.3 µM (inactive)
 6  Cc1cc2c(=O)cc(-c3ccc(C(=O)O)cc3)oc2c(C(=O)O)c1C               GI50   > 100 µM (inactive)
 7                  CN(C)CCCc1c[nH]c2ccccc12               GI50   > 100 µM (inactive)
 8  CCCC(=O)NC(C(=O)OCC)(N1CCOCC1)C(F)(F)F (stereo not drawn)               GI50   > 100 µM (inactive)
 9                    CSC(=S)Nc1cc(C)cc(C)n1               GI50  > 31.6 µM (inactive)
10  Cc1ccc2c(c1)NC(=O)C(N=[N+]=[N-])(c1ccccc1)C2=O (stereo not drawn)               GI50    18.3 µM (inactive)
11      O=C1C=C(N2CCCC2)C(=O)c2c(O)ccc(O)c21               GI50    > 10 µM (inactive)
12  Cc1ccc(/C=C/C(=O)c2c([O-])on[n+]2-c2ccccc2)cc1               GI50    1.88 µM (inactive)
13  O=C1c2cccc3cccc(c23)C(=O)N1CCCN1CCN(CCCN2C(=O)c3cccc4cccc(c34)C2=O)CC1               GI50   > 100 µM (inactive)
14  CC(=O)NNc1nc(C)c(C(=O)NNC(=O)C(=O)Nc2ccc([N+](=O)[O-])cc2C#N)s1               GI50    52.7 µM (inactive)
15            CO/C(=N\N=C\c1ccccc1F)c1ccncc1               GI50    > 10 µM (inactive)
16  CCC(C)C(=O)OCC(=O)c1ccc(-c2ccccc2)cc1 (stereo not drawn)               GI50    34.7 µM (inactive)
17  Cn1c2ccccc2c2ccc3c(c21)C(=O)c1ccccc1C3=O               GI50    15.9 µM (inactive)
18                              NC(=O)C(N)=O               GI50   > 100 µM (inactive)
19  Cn1c2ccccc2c(=O)c2c(O)cc3c(c21)C=CC1(CCCC1)O3               GI50   > 100 µM (inactive)
20                     N#Cc1ccccc1Nc1ccccc1S               GI50    17.5 µM (inactive)
21  Cc1c(C)c(C)c(-n2c(=O)n(C)c(=O)n2-c2cc(C(C)(C)C)cc(C(C)(C)C)c2O)c(C)c1C               GI50    13.6 µM (inactive)
22  O=C1c2ccccc2N(O)C1(c1ccccc1)C1CCCC=C1N1CCOCC1 (stereo not drawn)               GI50    71.1 µM (inactive)

###

- System: ACHN
- method_notes: NCI tumour cell line growth inhibition, 48 h
Calls of active or inactive are those of the source. Cut-off read from the data, not from the text of the source: active = GI50 up to about 1.1 µM and inactive = higher.
Classes used: active, inactive

compound	discrete_label
CCOC(=O)C1S/C(=N\c2cccc(Cl)c2C)N=C1C (centres undefined)	inactive
Cc1ccc2c(c1)NC(=O)C(N=[N+]=[N-])(c1ccccc1)C2=O (centres undefined)	inactive
COc1ccc(/C(=N\NC(=S)NN)C(c2ccc(OC)cc2)C2C(=O)Oc3ccccc32)cc1 (centres undefined)	inactive
Cc1n(Cc2ccccc2)c2c([n+]1C)C(=O)c1ccccc1C2=O	active
COC(=O)C1=C(OC(=O)/C(=C/c2ccccc2)c2ccc(Cl)cc2)C(C(=O)OC)[C@@]2(O)[C@@H](C(=O)OC)[C@H](C)C[C@@H]1[C@@H]2C(=O)OC (some centres undefined)	inactive
Cn1cc(-c2csc(-c3cn(C)c4ccccc34)n2)c2ccccc21	inactive
O=c1[nH]ccc(CNC23CC4CC(CC(C4)C2)C3)c1O	inactive
COC1C(N)C(OC2C(Oc3cccc4c(O)c5c(=O)oc6ccc(C)c7c(=O)oc(c34)c5c67)OC(C)C(O)C2(C)O)OC(C)C1O (centres undefined)	active
COc1ccc(-c2oc3c(OC)c(OC)c(OC)c(O)c3c(=O)c2OC)cc1OC	inactive

###

- System: MOLT-4
- method_notes: NCI tumour cell line growth inhibition, 48 h
Activity calls are given as the source filed them. Cut-off read from the data, not from the text of the source: active = GI50 up to about 1.1 µM and inactive = higher. Where a SMILES comes first, the peptide text is derived from it. [ ]: non-standard residue; d: D form. The star is where a group is joined. ξ: configuration not given here. ξNMe2Val = CC(C)C(C(=O)*)N(C)C; NMeV = CN[CH](C(=O)O)C(C)C; NHBn = c1ccc(CN*)cc1
Classes used: 1.0 = active, 0.0 = inactive

molecule	discrete_label
Cc1cc(S(=O)(=O)Nc2nnc3cc(C(F)(F)F)cc(C)n23)c(S)cc1Cl	0.0
Cn1cnc([N+](=O)[O-])c1Sc1nc(N)nc2c1ncn2C1OC(CO)C(O)C1O (centres undefined)	0.0
CC(=O)OCC1OC(n2ccc(=O)[nH]c2=O)C(OC(C)=O)C(OC(C)=O)C1OC(C)=O (centres undefined)	0.0
O=C1/C(=C/c2ccccc2)Oc2cc(O)ccc21	0.0
COC(=O)[C@@]12C3=NO[C@]1(C(=O)OC)C(O[Si](C)(C)C(C)(C)C)[C@@H](OC(C)=O)[C@@H](OC(C)=O)[C@@H]2[C@@H](OCc1ccccc1)CC3 (some centres undefined)	0.0
CC(C)C(NC(=O)C(C(C)C)N(C)C)C(=O)N(C)C(C(=O)N1CCCC1C(=O)N1CCCC1C(=O)NCc1ccccc1)C(C)C (centres undefined) (ξNMe2Val-V[NMeV]PP-NHBn; configuration not given here)	1.0
NCCCNCCCCN1CC1	0.0
COc1ccc(C)cc1-c1ccc(-c2cc(C)ccc2OC)o1	0.0
COC1=CC(=O)C2C(C1=O)[C@@H]1c3ccccc3C[C@H]21 (some centres undefined)	0.0

###

// GI50 lookup, one value per entry
- Test system: SK-MEL-2
- method_notes: NCI tumour cell line growth inhibition, 48 h
Activity calls are given as the source filed them. Cut-off read from the data, not from the text of the source: active = GI50 up to about 1.1 µM and inactive = higher.
property_measured: GI50

                                   compound  property_measured                  val
0  O=C(NNC(=S)Nc1ccccc1)C12CC3CC(CC(C3)C1)C2               GI50   22.1 µM (inactive)
1  C#CC(C)(C)OCCCCOc1cc(O)c2c(=O)c3ccccc3n(C)c2c1               GI50  > 100 µM (inactive)
2  COc1cc(/C=C/c2ccc(/C=C/c3cc(OC)c(OC)c(OC)c3)cc2)cc(OC)c1OC               GI50   20.7 µM (inactive)
3  O=C(Nc1nnc(-c2c(Cl)c(Cl)c(Cl)c(Cl)c2-c2nc3cc(C(=O)c4ccccc4)ccc3[nH]2)o1)c1ccccc1               GI50   17.7 µM (inactive)
4  C=C1CC2(CCS(=O)(=O)c3ccccc32)OC1=O (stereo not given)               GI50   10.7 µM (inactive)
